Experiment: in vivo
Conditions: mouse
quantity name: AUC (ng·h/mL)
Respond numerically; units are ng·h/mL and should not be typed.

Name the reported AUC value associated with the molecule CCC1=C[C@@H]2CN(C1)Cc1c([nH]c3ccccc13)[C@@](C(=O)OC)(c1cc3c(cc1OC)N(C)[C@H]1[C@@](O)(C(=O)OC)[C@H](OC(C)=O)[C@]4(CC)C=CCN5CC[C@]31[C@@H]54)C2 [Vinorelbine, vinorelbine, reference compound] 3380

* * *

Experiment: Plasma exposure by LC-MS/MS at MED and NOAEL doses
Conditions: mouse, in vivo, 30 mg/m^2
quantity name: AUC (ng·h/mL)
// return numeric value only (unit: ng·h/mL, not printed)

# input molecule: CCC1=C[C@@H]2CN(C1)Cc1c([nH]c3ccccc13)[C@@](C(=O)OC)(c1cc3c(cc1OC)N(C)[C@H]1[C@@](O)(C(=O)OC)[C@H](OC(C)=O)[C@]4(CC)C=CCN5CC[C@]31[C@@H]54)C2 [Vinorelbine, vinorelbine, reference compound] ; wanted: its AUC 2310
